assay.text: non-covalent RecA intein splicing inhibitors, dose response, biochemical, cell-free, fluorescence, secondary screen (AID 449750)
Activity calls are given as the source filed them. How the calls were made is not given here.
Possible outcomes: t (active), f (inactive)

> print(dat)
                                    molecule  class
 1  C/C(CC(=O)Nc1ccc(Cl)cn1)=N\NC(=O)Cc1cccs1      f
 2        Cc1ccc(Sc2ccc(NC(=O)CCl)cc2)c(C)c1      t
 3  Cn1c2c(c(=O)n(C)c1=O)[C@@]1(C(=O)Nc3ccccc31)C(C#N)=C(N)O2      f
 4  Cc1cc(C(=O)N/N=C/c2c(C)[nH]n(-c3ccccc3)c2=O)n[nH]1      t
 5      CC1=NN(c2ccc(S(=O)(=O)O)cc2C)C(=O)C1      t
 6  CCCc1[nH]nc2c1C(c1ccc(OC(=O)N3CCOCC3)c(OC)c1)C(C#N)=C(N)O2 (configuration not stated)      f
 7  N=c1c2c(-c3ccccc3)c(-c3ccccc3)n(Cc3ccco3)c2ncn1Cc1ccccc1      t
 8  CN1CCN(C2=C(Cl)C(=O)C(c3cnc(N4CCCCC4)s3)=C(Cl)C2=O)CC1      t
 9                 N#CCn1c(CCl)nc2ccccc2c1=O      f
10  CNC1=C(N(C(C)=O)c2ccc(Br)cc2)C(=O)c2ccccc2C1=O      t
11  O=C(Cc1cc(=O)[nH][nH]1)N/N=C/C=C/c1ccccc1      t
12    O=c1c(Cl)c(NCCCO)cnn1-c1nc2ccccc2[nH]1      f
13  O=C(c1ccco1)N1CCN(c2nc(C3CC3)nc3sc4c(c23)CCCC4)CC1      t
14  O=c1oc2cc(Oc3c([N+](=O)[O-])cc(C(F)(F)F)cc3[N+](=O)[O-])ccc2c2c1CCCC2      f
15  COc1ccc(N(Cc2cc(=O)[nH]c3ccccc23)C(=O)CCl)cc1      t
16  CCCc1[nH]nc2c1C(c1ccc(OCCN3CCOCC3)c(OCC)c1)C(C#N)=C(N)O2 (configuration not stated)      f
17  CSc1nnc(NC(=O)c2nc(S(=O)(=O)Cc3ccccc3)ncc2Cl)s1      f
18  COc1ccc(NC(=O)/C(Cl)=C(/Cl)S(=O)(=O)Cc2ccc(C)cc2)cn1      t
19        CS/C(=C\[N+](=O)[O-])Nc1ccc(Cl)cc1      f
20   CS(=O)(=O)c1nc(-c2ccccc2)cc(C(F)(F)F)n1      f
21             O=C1C(=O)c2ccccc2C(O)=C1CCCCl      t
22  COc1cc(/C=N/NC(=O)c2ccc(F)cc2)ccc1OC(=O)c1ccco1      f
